Sourced from paper PMC7600006

Biological target: cytochrome P450 OleP (Streptomyces antibioticus)
Construct: wild type enzyme
Experiment: UV-visible equilibrium titration (Type I Soret shift); crystal structures 6ZHZ, 6ZI2 and 6ZI7
Format: binding
readout-kind: Kd (µM)
Response body: numeric value in µM, unit text excluded.

-- ask I would be grateful if you could share the reported Kd for C[C@@H]1[C@@H](O)[C@@H](C)C[C@H](C)C(=O)[C@H](C)[C@@H](O)[C@@H](C)[C@@H](C)OC(=O)[C@H](C)[C@H]1O [DEO, 8.8a-deoxyoleandolide] .
-- reply 23

###

Biological target: cytochrome P450 OleP (Streptomyces antibioticus)
Construct: wild type enzyme
Sequence (Q59819 1-407): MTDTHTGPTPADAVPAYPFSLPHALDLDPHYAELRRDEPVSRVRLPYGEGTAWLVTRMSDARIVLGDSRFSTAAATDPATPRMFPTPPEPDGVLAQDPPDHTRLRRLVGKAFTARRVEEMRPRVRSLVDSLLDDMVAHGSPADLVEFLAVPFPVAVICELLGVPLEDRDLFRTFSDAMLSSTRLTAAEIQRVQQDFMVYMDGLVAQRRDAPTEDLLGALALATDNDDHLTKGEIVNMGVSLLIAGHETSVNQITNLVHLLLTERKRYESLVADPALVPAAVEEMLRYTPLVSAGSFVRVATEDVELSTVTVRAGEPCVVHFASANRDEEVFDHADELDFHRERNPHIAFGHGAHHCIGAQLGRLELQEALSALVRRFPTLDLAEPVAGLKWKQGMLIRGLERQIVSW
Assay: UV-visible equilibrium titration (Type I Soret shift); crystal structure of the ternary complex with L-rhamnose ([…] Å)
Assay type: binding
readout-kind: Kd (µM)
State just the number; it will be interpreted in µM.

-- ask Dear colleague, I am looking for the recorded Kd of the following compound: CC[C@H]1OC(=O)[C@H](C)[C@@H](O)[C@H](C)[C@@H](O)[C@@H](C)C[C@@H](C)C(=O)[C@H](C)[C@@H](O)[C@H]1C [6DEB, 6-deoxyerythronolide B]
-- reply 3.2
